# assayed target: T1, 4H3613-bN
# T1 chain: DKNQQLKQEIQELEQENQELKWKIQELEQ
# measurement notes: two-hybrid library CCNG1;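 also: natural log of median RNA to DNA barcode read ratio; higher means stronger binding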
Recorded measurements of interaction score, one per entry

Examples with answers:
INSERT INTO results (binder, result_type, result) VALUES
  ('DKNQQLEQKNQELEQEIQELEWKIQELKQ [4H3462-bN]', 'interaction score', -0.0373),
  ('DKNQQLEQKNQELEQKIQELKWEIQELEQ [4H3497-bN]', 'interaction score', -1.36);

The binder listed as DENQQLEQKNQELEQKIQELKWEIQELEQ [4H1449-bN] has a reported interaction score of -1.42

Note to self: interaction score recorded for DENQQLKQENQELEQKIQELKWKIQELKQ [4H1710-bN] was -0.41

Lookup result for DENQQLKQEIQELEQEIQELEWKNQELKQ [4H1544-bN] ; measured interaction score: -1.07

Reported interaction score ( DKNQQLEQENQELKQKIQELEWEIQELKQ [4H3298-bN] ) = -1.42

Memo: DKNQQLEQEIQELKQENQELKWEIQELKQ [4H3162-bN] , reported interaction score: -1.7

Lookup result for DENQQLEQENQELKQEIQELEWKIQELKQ [4H1222-bN] ; measured interaction score: 0.482

The binder listed as DENQQLEQEIQELEQKNQELKWEIQELEQ [4H1081-bN] has a reported interaction score of -1.17

For reference, reported interaction score for DENQQLKQKIQELKQKIQELKWENQELEQ [4H1899-bN] stands at 0.0619

# interaction score of DKNQQLEQENQELKQEIQELKWKIQELEQ [4H3277-bN] = -1.08

DKNQQLKQEIQELEQENQELKWKIQELEQ [4H3613-bN] has a reported interaction score of -0.839

Please fill in: interaction score reported for DENQQLEQKIQELEQKNQELKWEIQELKQ [4H1338-bN] = -0.479

The reported value for DENQQLEQKIQELKQENQELKWKIQELEQ [4H1373-bN] in terms of interaction score is 1.13

The origin of these recorded values is paper PMC10397247.
